- Tested on: rat erythrocytes
- protocol details: Hemolysis assay
- Assay type: cell-based
- measurement setup: pH 7.4
Square brackets hold non-standard residues; d marks the D form. Peptide text beside a SMILES is read from it. Gly(N(CH2)2(3-indolyl)) = O=C(O)CNCCc1c[nH]c2ccccc12; Nspe = C[C@H](NCC(=O)O)c1ccccc1; Nphe = O=C(O)CNCc1ccccc1; Nlys = NCCCCNCC(=O)O
property name: HC10

Form field: reported HC10 of C[C@@H](c1ccccc1)N(CC(=O)N(CCCCN)CC(=O)N(CCc1c[nH]c2ccccc12)CC(=O)N(CCc1c[nH]c2ccccc12)CC(N)=O)C(=O)CN(CCCCN)C(=O)CN(CCCCN)C(=O)CN(Cc1ccccc1)C(=O)CN(Cc1ccccc1)C(=O)CN(CCCCN)C(=O)CN(C(=O)CN(C(=O)CNCCCCN)[C@@H](C)c1ccccc1)[C@@H](C)c1ccccc1 [peptoid 40] (H-[Nlys][Nspe][Nspe][Nlys][Nphe][Nphe][Nlys][Nlys][Nspe][Nlys][Gly(N(CH2)2(3-indolyl))][Gly(N(CH2)2(3-indolyl))]-NH2)
> 100 µM

###

Below: a set of entries, each annotated with reported HPLC elution (%ACN).
- protocol details: Analytical reversed-phase HPLC elution (hydrophobicity)
- Format: physicochemical
- measurement setup: Table 1; analytical RP-HPLC, SunFire C18 […] 250 mm, water/ACN + 0.1% TFA, 5% B 2 min then linear to 100% B over 30 min, 1 mL/min, UV 220 nm; used as measure of hydrophobicity
Square brackets hold non-standard residues; d marks the D form. Peptide text beside a SMILES is read from it. Gly(N(CH2)2(3-indolyl)) = O=C(O)CNCCc1c[nH]c2ccccc12; Nspe = C[C@H](NCC(=O)O)c1ccccc1; Nlys = NCCCCNCC(=O)O
Give the number; %ACN is assumed, so skip it.

Guide cases for HPLC elution (%ACN), answers given:
C[C@@H](c1ccccc1)N(CC(N)=O)C(=O)CN(C(=O)CN(CCCCN)C(=O)CN(C(=O)CN(C(=O)CN(CCCCN)C(=O)CN(C(=O)CN(C(=O)CN(CCCCN)C(=O)CN(CCc1c[nH]c2ccccc12)C(=O)CN(CCc1c[nH]c2ccccc12)C(=O)CNCCCCN)[C@@H](C)c1ccccc1)[C@@H](C)c1ccccc1)[C@@H](C)c1ccccc1)[C@@H](C)c1ccccc1)[C@@H](C)c1ccccc1 = 55.6
C[C@@H](c1ccccc1)N(CC(=O)N(CCCCN)CC(=O)N(CC(=O)N(CC(=O)N(CCCCN)CC(=O)N(CC(=O)N(CC(=O)N(CCCCN)CC(=O)N(CCc1c[nH]c2ccccc12)CC(=O)N(CCc1c[nH]c2ccccc12)CC(N)=O)[C@@H](C)c1ccccc1)[C@@H](C)c1ccccc1)[C@@H](C)c1ccccc1)[C@@H](C)c1ccccc1)C(=O)CN(C(=O)CNCCCCN)[C@@H](C)c1ccccc1 [peptoid 11] (H-[Nlys][Nspe][Nspe][Nlys][Nspe][Nspe][Nlys][Nspe][Nspe][Nlys][Gly(N(CH2)2(3-indolyl))][Gly(N(CH2)2(3-indolyl))]-NH2) = 54.0

Form field: reported HPLC elution (%ACN) of `C[C@@H](c1ccccc1)N(CC(N)=O)C(=O)CN(CCCCN)C(=O)CN(CCCCN)C(=O)CN(C(=O)CN(C(=O)CN(CCCCN)C(=O)CN(C(=O)CN(C(=O)CN(CCCCN)C(=O)CN(CCc1c[nH]c2ccccc12)C(=O)CN(CCc1c[nH]c2ccccc12)C(=O)CNCCCCN)[C@@H](C)c1ccccc1)[C@@H](C)c1ccccc1)[C@@H](C)c1ccccc1)[C@@H](C)c1ccccc1`
48.4

Form field: reported HPLC elution (%ACN) of C[C@@H](c1ccccc1)N(CC(N)=O)C(=O)CN(C(=O)CN(CCCCN)C(=O)CN(C(=O)CN(C(=O)CN(CCCCN)C(=O)CN(C(=O)CN(C(=O)CN(CCCCN)C(=O)CN(C(=O)CN(C(=O)CNCCCCN)[C@@H](C)c1ccccc1)[C@@H](C)c1ccccc1)[C@@H](C)c1ccccc1)[C@@H](C)c1ccccc1)[C@@H](C)c1ccccc1)[C@@H](C)c1ccccc1)[C@@H](C)c1ccccc1 [peptoid 1, reference compound] (H-[Nlys][Nspe][Nspe][Nlys][Nspe][Nspe][Nlys][Nspe][Nspe][Nlys][Nspe][Nspe]-NH2)
54.5

Form field: reported HPLC elution (%ACN) of CC[C@H](C)[C@H](N)C(=O)N[C@@H](CC(C)C)C(=O)N[C@@H](CCCNC(=N)N)C(=O)N[C@@H](Cc1c[nH]c2ccccc12)C(=O)N1CCC[C@H]1C(=O)N[C@@H](Cc1c[nH]c2ccccc12)C(=O)N[C@@H](Cc1c[nH]c2ccccc12)C(=O)N1CCC[C@H]1C(=O)N[C@@H](Cc1c[nH]c2ccccc12)C(=O)N[C@@H](CCCNC(=N)N)C(=O)N[C@@H](CCCNC(=N)N)C(=O)N[C@@H](CCCCN)C(N)=O [Omiganan, reference compound] (H-ILRWPWWPWRRK-NH2)
45.7
